- Tested on: japanese bulrush
- Protocol Text: Test Example 3: paddy pot test, application under submerged conditions
- Type: in vivo, Scirpus juncoides
- Experimental Setup: active ingredient 250 g/ha; submerged application at 0.5 leaf stage; visually observed 14 days after application; 0 = non-treated, 100 = complete kill
Below, each entry is listed with its recorded Growth controlling degree (%) Japanese bulrush.
Expressed in %, but write only the number.

CC(Oc1ccc(F)cc1)C(=O)N(C)C(c1cnccc1C(F)(F)F)C(C)C (mixture of isomers) :: 95
CCN(C(=O)Cc1cccc(F)c1F)C(c1cnccc1C(F)(F)F)C(C)C (stereo not drawn) :: 95
CCc1ccc(CC(=O)N(C)C(c2cnccc2C(F)(F)F)C(C)C)cc1 (stereo not drawn) :: 98

Q: Please look up its Growth controlling degree (%) Japanese bulrush: CC(C)C(c1cnccc1C(F)(F)F)N(C)C(=O)Cc1cc(F)ccc1F (stereo not drawn)
Result: 98

Q: Please look up its Growth controlling degree (%) Japanese bulrush: CC(C)C(c1cnccc1C(F)(F)F)N(C)C(=O)COc1ccc(Br)cc1 (stereo not drawn)
Result: 95

Q: Please look up its Growth controlling degree (%) Japanese bulrush: Cc1cccc(OCC(=O)N(C)C(c2cnccc2C(F)(F)F)C(C)C)c1 (stereo not drawn)
Result: 95

Q: Please look up its Growth controlling degree (%) Japanese bulrush: CSc1ccc(CC(=O)N(C)C(c2cnccc2C(F)(F)F)C(C)C)cc1 (stereo not drawn)
Result: 50

Q: Please look up its Growth controlling degree (%) Japanese bulrush: Cc1cccc(CC(=O)N(C)C(c2cnccc2C(F)(F)F)C(C)C)c1 (stereo not drawn)
Result: 90

Q: Please look up its Growth controlling degree (%) Japanese bulrush: CC(C)C(c1cnccc1C(F)(F)F)N(C)S(=O)(=O)c1ccc(F)cc1 (racemic)
Result: 70

Each recorded value in this set is attributed to patent US20050239656A1.
